Give measured Ab IC50-Cyno PBMC (Trial 2), TNFα release induced by cyno PGLYRP1/PGN for each item. Keep answers brief.
# system.name: T1, cyno TREM-1 (cynomolgus monkey, UniProt A0A2K5VHG8 21-233)
# T1 sequence: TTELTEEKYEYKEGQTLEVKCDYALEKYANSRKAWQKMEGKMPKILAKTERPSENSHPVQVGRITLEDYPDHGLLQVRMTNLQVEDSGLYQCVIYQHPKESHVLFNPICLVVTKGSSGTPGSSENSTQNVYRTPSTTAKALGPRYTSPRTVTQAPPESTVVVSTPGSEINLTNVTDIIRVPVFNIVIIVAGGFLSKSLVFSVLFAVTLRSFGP
# protocol.summary: cell-based or functional assay
# number only, unit nM dropped from output

So, 61G5 (antibody, V domains shown) VH: QVQLVQSGAEVKKPGASVKVSCKASGYTFTSYDINWVRQATGQGLEWMGWMNPNSGNSGSVKKFRDRVTMTRNTSISTAYMELSSLRSEDTAVYYCVRLIGYSSAWKWSFQHWGQGTLVTVSS VL: DIQMTQSPSSLSASVGDRVTITCQASRDISKYLNWYQQKPGKAPKLQIYDASNLETGVPSRFSGSGSGTDFTFTISSLQPEDIATYYCQHYDNIPITFGQGTRLEIK ? Its Ab IC50-Cyno PBMC (Trial 2), TNFα release induced by cyno PGLYRP1/PGN was 2.34

So, 66B8 (antibody, V domains shown) VH: QVQLVQSGAEVKKPGASVKVSCKASGYTFTGYYMHWVRQAPGQGLEWMGWFKPNSGVTNYAQKFQGRVTMSRDTSISTAYMELSSLRSDDTAVYYCARAGYSTSWKDWFDPWGQGTLVTVSS VL: DIQMTQFPSSVSASVGDRVTITCRASQGISRWLAWYQQKQGKAPKLLIYMVSSLQSGVPSRFSGSGSGTDFTLTISSLQPEDFATYYCQQSHNFPITFGQGTRLDIK ? Its Ab IC50-Cyno PBMC (Trial 2), TNFα release induced by cyno PGLYRP1/PGN was 0.0232

All values here come from patent US20260274913A1.
